# assay_overview: self-splicing fitness, log relative to wild type (ln ratio); higher = more splicing; Tetrahymena group I intron in knt gene, E. coli kanamycin selection, DiMSum; sequences stand for … in CUCUCU…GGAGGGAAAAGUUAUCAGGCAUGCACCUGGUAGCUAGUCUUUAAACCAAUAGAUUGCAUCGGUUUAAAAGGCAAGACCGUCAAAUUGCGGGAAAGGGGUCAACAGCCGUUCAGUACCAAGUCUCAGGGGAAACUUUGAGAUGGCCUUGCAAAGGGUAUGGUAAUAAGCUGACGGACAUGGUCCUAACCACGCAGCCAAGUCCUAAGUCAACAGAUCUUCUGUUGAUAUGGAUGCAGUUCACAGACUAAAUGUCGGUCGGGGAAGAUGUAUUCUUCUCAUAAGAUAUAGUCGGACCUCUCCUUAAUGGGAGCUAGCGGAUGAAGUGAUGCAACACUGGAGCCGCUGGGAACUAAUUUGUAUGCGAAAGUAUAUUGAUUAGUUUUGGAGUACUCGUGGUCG;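 note: selection with 25 µg/mL kanamycin versus none on LB agar overnight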
# assay_setup: 37 °C
Consider the reported self-splicing fitness (ln) of an entry and match it to a band in low range: < -2; mid range: ≥ -2 and < -0.8; high range: ≥ -0.8

> print(dat)
         sequence.chain  qualitative.label
1  UCGAAGCAAUAUUACGAAAG          low range
2  CGCAAGCAAUAUUACGACAU          mid range
3  AAAUAGCAAUAUUACGCUCU         high range
4  GUCCAGCAAUAUUACGAAGG          mid range
5  UAUAAGCAAUAUUACGAACA         high range
6  UUUGAGCAAUAUUACGGUGA          low range
7  AAACAGCAAUAUUACGGUUC          low range
8  CGUUAGCAAUAUUACGUGUA          low range
9  UUCCAGCAAUAUUACGCGUC          mid range
